This collection of values is drawn from patent US5427766A.

Test: In vivo localization (biodistribution) in athymic female nude mice bearing intraperitoneal MCF-7 tumors
Design: species or system athymic female NCR-Nu Mice
Conditions: mouse, in vivo, ip, Percent Injected Dose/Gram, tumor
quantity: tissue uptake at 48 h (%ID/g)
Lab book: enter the figure in %ID/g, no units written.

// Input: "CC[C@H]1C[C@@]2(C)[C@@H](CC[C@@]2(O)/C=C\[125I])[C@@H]2CCc3cc(O)ccc3[C@@H]12" . Output its tissue uptake at 48 h only.
0.76

====

Assay: In vivo localization (biodistribution) in athymic female nude mice bearing subcutaneous MCF-7 tumor xenografts
Design: species or system athymic female NCR-Nu Mice
Details: mouse, sc; Liver, 10-12 hours, tail vein, subcutaneous MCF-7, mean, n = 5; read-out: Percent Injected Dose/Gram, liver
quantity: tissue uptake (%ID/g)
The response must be a number in %ID/g with no trailing unit.

# return recorded tissue uptake for input "CC[C@H]1C[C@@]2(C)[C@@H](CC[C@@]2(O)/C=C\[125I])[C@@H]2CCc3cc(O)ccc3[C@@H]12"
2.39

====

Test: In vivo localization (biodistribution) in athymic female nude mice bearing subcutaneous MCF-7 tumor xenografts
Design: species or system athymic female NCR-Nu Mice
Settings: mouse, sc; Liver, 2 hours, tail vein, subcutaneous MCF-7, mean, n = 5; read-out: Percent Injected Dose/Gram, liver
quantity: tissue uptake at 2 h (%ID/g)
Answer with a number only, understood to be in %ID/g.

Answer with the recorded tissue uptake at 2 h for the compound listed here: "CC[C@H]1C[C@@]2(C)[C@@H](CC[C@@]2(O)/C=C\[125I])[C@@H]2CCc3cc(O)ccc3[C@@H]12"
5.61

====

Assay: In vivo localization (biodistribution) in athymic female nude mice bearing subcutaneous MCF-7 tumor xenografts
Design: species or system athymic female NCR-Nu Mice
Settings: mouse, sc; Spleen, 24 hours, tail vein, subcutaneous MCF-7, mean, n = 5; read-out: Percent Injected Dose/Gram, spleen
quantity: tissue uptake at 24 h (%ID/g)
Provide only the numeric value, understood in %ID/g.

Provide only the value of recorded tissue uptake at 24 h for "CC[C@H]1C[C@@]2(C)[C@@H](CC[C@@]2(O)/C=C\[125I])[C@@H]2CCc3cc(O)ccc3[C@@H]12"
0.18

====

Experiment: In vivo localization (biodistribution) in athymic female nude mice bearing intraperitoneal MCF-7 tumors
Parameters: species or system athymic female NCR-Nu Mice
Settings: mouse, in vivo, ip, Percent Injected Dose/Gram, kidney
quantity: tissue uptake at 48 h

Give the value of tissue uptake at 48 h reported for the following: CC[C@H]1C[C@@]2(C)[C@@H](CC[C@@]2(O)/C=C\[125I])[C@@H]2CCc3cc(O)ccc3[C@@H]12 [Compound 5]
0.03 %ID/g

====

Test: In vivo localization (biodistribution) in athymic female nude mice bearing intraperitoneal MCF-7 tumors
Parameters: species or system athymic female NCR-Nu Mice
Conditions: mouse, in vivo, ip, Percent Injected Dose/Gram, spleen
quantity: tissue uptake at 6 h (%ID/g)
Return type: number; implicit unit %ID/g.

Given the molecule CC[C@H]1C[C@@]2(C)[C@@H](CC[C@@]2(O)/C=C\[125I])[C@@H]2CCc3cc(O)ccc3[C@@H]12 [Compound 5] , write its reported tissue uptake at 6 h.
0.86

====

Experiment: In vivo localization (biodistribution) in athymic female nude mice bearing subcutaneous MCF-7 tumor xenografts
Parameters: species or system athymic female NCR-Nu Mice
Details: mouse, sc; Liver, 48 hours, tail vein, subcutaneous MCF-7, mean, n = 5; read-out: Percent Injected Dose/Gram, liver
quantity: tissue uptake at 48 h (%ID/g)
Report as a plain number; the unit %ID/g is understood.

Note tissue uptake at 48 h for the compound shown: "CC[C@H]1C[C@@]2(C)[C@@H](CC[C@@]2(O)/C=C\[125I])[C@@H]2CCc3cc(O)ccc3[C@@H]12"
0.36
